Tested on: U-937
testMethodNotes: Antiproliferative activity against human U937 cells after 24 hrs by WST-8 assay
Format: functional, cell-based
condition: U-937, 24 h
Would you mind telling me the reported IC50 of each entry?
Numbers only, in µM.

structureAsSmiles	IC50 (µM)
COc1cc(-c2coc3cc(O)cc(O)c3c2=O)ccc1O	68

Now look at this one.
Query: IC50; subject: O=c1c(-c2ccc(O)c(O)c2)coc2cc(O)cc(O)c12
73

---

Tested on: U-937
testMethodNotes: Antiproliferative activity against human U937 cells after 48 hrs by WST-8 assay
Format: functional, cell-based
condition: U-937, 48 h
Binarize IC50 at 30 µM; below is Condition met, at or above is Condition not met.

Would you please look over these solved cases?
compound	classLabel
C=C(C)[C@H]1Cc2c(ccc3c2O[C@@H]2COc4cc(OC)c(OC)cc4[C@]2(O)C3=O)O1 [ROTENOLONE]	Condition met
COc1ccc2c(c1)OC[C@H]1c3cc4c(cc3O[C@@H]21)OCO4 [PTEROCARPIN]	Condition not met
COc1ccc2c(c1)OC[C@@]1(OC)c3cc4c(cc3O[C@@H]21)OCO4 [ERYCIBENIN C]	Condition not met
COc1cc(O)cc2c1C(=O)O[C@@H](C)CCCCCCC2 [LASIODIPLODIN]	Condition met
CC[C@@]1(O)C(=O)OCc2c1cc1n(c2=O)Cc2cc3ccccc3nc2-1 [CAMPTOTHECIN]	Condition met

Decide: IC50 of COc1ccc([C@@H]2CCc3c(OC)cc(OC)cc3O2)c(O)c1 [ERYCEBENIN E] strictly below 30 µM?
Condition met

API: query returns whether the compound falls strictly under 30 µM in IC50. Query: CC1(C)C=Cc2c(cc3occ(-c4ccc(O)cc4)c(=O)c3c2O)O1 [ALPINUMISOFLAVONE]
Condition not met

Strictly below 30 µM in IC50? COc1cc(-c2coc3cc(O)cc(O)c3c2=O)ccc1O [3'-O-METHYLOROBOL]
Condition not met
